Data provenance is paper PMC9090415.

target: P. falciparum apicoplast DNA polymerase (Pf-apPOL) (Plasmodium falciparum); assay: Fluorescence-based high-throughput DNA polymerase assay (molecular beacon), primary screen and dose-response; format: biochemical; conditions: DRC-1; 180'; conc 20;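 also: test concentration in µM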
Sequence (Q8ILY1 entry or part of it): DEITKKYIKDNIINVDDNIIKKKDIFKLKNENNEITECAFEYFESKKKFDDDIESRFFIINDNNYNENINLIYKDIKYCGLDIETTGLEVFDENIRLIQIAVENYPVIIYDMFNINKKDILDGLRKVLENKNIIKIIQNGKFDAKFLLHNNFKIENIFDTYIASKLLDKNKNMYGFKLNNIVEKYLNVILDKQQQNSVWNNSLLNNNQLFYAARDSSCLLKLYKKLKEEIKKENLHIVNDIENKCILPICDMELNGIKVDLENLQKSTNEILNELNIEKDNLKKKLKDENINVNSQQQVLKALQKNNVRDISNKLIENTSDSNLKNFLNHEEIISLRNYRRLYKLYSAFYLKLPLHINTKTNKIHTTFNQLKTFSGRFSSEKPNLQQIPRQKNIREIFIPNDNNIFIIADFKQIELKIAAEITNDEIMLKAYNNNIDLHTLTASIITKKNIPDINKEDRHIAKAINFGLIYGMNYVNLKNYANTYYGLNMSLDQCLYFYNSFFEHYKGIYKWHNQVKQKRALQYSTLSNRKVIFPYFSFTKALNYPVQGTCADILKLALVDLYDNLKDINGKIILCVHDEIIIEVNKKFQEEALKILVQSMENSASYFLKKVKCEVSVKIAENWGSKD
Here the recorded % inhibition apPOL 180' is given for each entry.
assayMetric: % inhibition apPOL 180' (%)

[
  {
    "compound": "Cc1cc(C)c2c(c1)C1C=CCC1C(c1ccc(C(=O)O)cc1)N2 (centres unmarked)",
    "observedMeasurement": 53.0918
  },
  {
    "compound": "Cc1ccc(N2NC(=O)/C(=C\\c3ccc(O)c([N+](=O)[O-])c3)C2=O)cc1Cl",
    "observedMeasurement": 38.9214
  },
  {
    "compound": "O=C1NN(c2ccc(Cl)c(Cl)c2)C(=O)/C1=C/c1ccc(-c2ccc3c(c2)C(=O)OC3)o1",
    "observedMeasurement": 91.6394
  },
  {
    "compound": "Cc1cccc(NC(=O)Cn2ccc3c(=O)[nH]ccc32)c1C [Molecule 11, O=C(Cn1ccc2c1cc[nH]c2=O)Nc1cccc(c1C)C]",
    "observedMeasurement": 70.7317
  },
  {
    "compound": "O=C(O)c1ccc(COc2cc([N+](=O)[O-])cc3cccnc23)cc1",
    "observedMeasurement": 39.8383
  },
  {
    "compound": "Cc1ccccc1NC(=O)Cn1ccc2c(=O)[nH]ccc21 [Molecule 50, O=C(Cn1ccc2c1cc[nH]c2=O)Nc1ccc(cc1)C]",
    "observedMeasurement": 64.1474
  },
  {
    "compound": "Cc1cccc(C2=N/C(=C\\c3ccc([N+](=O)[O-])o3)C(=O)O2)c1",
    "observedMeasurement": 52.0492
  },
  {
    "compound": "CC(C)CCNC(=O)c1cnn2c(O)cc(CSc3ccc(Cl)cc3)nc12",
    "observedMeasurement": 71.0945
  }
]
